Reference for the values: ChEMBL document CHEMBL3045108

Test system: Blood
PROCEDURE_TEXT: Drug level in Homo sapiens (human) whole blood assessed as retention time by UPLC-TOF-MS analysis
Rule: measured Retention_time below 4 min gets Criterion met; anything equal to or greater than 4 min gets Criterion not met.

CN1C(=O)CN=C(c2ccccc2F)c2cc([N+](=O)[O-])ccc21: Criterion not met
CNCCCC1(c2ccc(F)cc2)OCc2cc(C#N)ccc21 (stereo unspecified): Criterion not met
COC(=O)C1=C(C)NC(C)=C(C(=O)OC(C)(C)CN(C)CCC(c2ccccc2)c2ccccc2)C1c1cccc([N+](=O)[O-])c1 (stereo unspecified): Criterion not met
CCC(=O)C1(c2cccc(O)c2)CCN(C)CC1: Criterion met
COC(=O)C(c1ccccc1)C1CCCCN1 (stereo unspecified) [METHYLPHENIDATE]: Criterion not met
CNCCC=C1c2ccccc2CCc2ccccc21: Criterion not met
OCc1cc(C(O)CNCCCCCCOCCCCc2ccccc2)ccc1O (stereo unspecified): Criterion not met
O=C1CCc2ccc(OCCCCN3CCN(c4cccc(Cl)c4Cl)CC3)cc2N1: Criterion not met
CN(C)CCCN1c2ccccc2Sc2ccc(Cl)cc21: Criterion not met
OC(CCN1CCCC1)(c1ccccc1)C1CCCCC1 (stereo unspecified): Criterion not met

Confirm or reject: Retention_time of COc1cc(CC(C)N)c(OC)cc1C (stereo unspecified) lies strictly below 4 min
Criterion not met

Entry CN[C@@H](C)[C@H](O)c1ccccc1 please
Criterion met

Entry COC(=O)[C@H]1[C@@H](OC(=O)c2ccccc2)C[C@@H]2CC[C@H]1N2C please
Criterion not met

Entry CNC(C)Cc1ccc2c(c1)OCO2 (stereo unspecified) please
Criterion met

Entry CC(CN(C)C)CN1c2ccccc2CCc2ccccc21 (stereo unspecified) please
Criterion not met

Entry COc1ccc(CCN(C)CCCC(C#N)(c2ccc(OC)c(OC)c2)C(C)C)cc1OC (stereo unspecified) please
Criterion not met

Entry CN(C)CCCN1c2ccccc2CCc2ccc(Cl)cc21 please
Criterion not met

Entry CC(CN1c2ccccc2Sc2ccccc21)N(C)C (stereo unspecified) please
Criterion not met
